target: GI.3 (norovirus GI.3); assay: ELISA
Field: pEC50. Provide a value for each of the binders that follow.
pEC50 here: minus log base 10 of the concentration, concentration in moles per litre.

Recorded pEC50 for 279A (antibody, V domains shown) VH: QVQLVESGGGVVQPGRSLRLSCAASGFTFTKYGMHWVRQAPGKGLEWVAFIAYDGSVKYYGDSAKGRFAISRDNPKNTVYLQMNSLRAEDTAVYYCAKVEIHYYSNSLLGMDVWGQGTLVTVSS VL: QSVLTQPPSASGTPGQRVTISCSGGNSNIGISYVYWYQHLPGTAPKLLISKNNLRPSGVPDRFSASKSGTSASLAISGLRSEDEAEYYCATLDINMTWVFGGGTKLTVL , please?
7.15

Recorded pEC50 for 178.6 (antibody, V domains shown) VH: QVQLVESGGGVVQPGRSLRLSCAASGFTFSTYGMNWVRQAPGRGLEWVADISYDGSNSRYADSVKGRFTISRDNSKNTLSLQMNGLRTEDTAVYYCAKDWYLAMAGAAFDSWGPGTLVTVSS VL: SSELTQDPVVSVALGQTVRITCQGDSLTTFYASWFQQKPGQAPALVLYGNDNRPSGIPDRFSGSRSGNTASLTITGAQAEDEADYYCNSRDSSGKPSFGGGTKLTVL , please?
7.08

Recorded pEC50 for 168.2 (antibody, V domains shown) VH: QVQLVESGGGVVQPGRSLRLSCAASGFTFSSYAMHWVRQAPGKGLEWVAVISYDGSNKYYADSVKGRFTISRDNSKNTLYLQMNSLRAEDTAVYYCARSVIGYYYYGMDVWGQGTLVTVSS VL: QPVLTQPPSASASLGASVTLTCTLSSGYSNYKVDWYQQRPGKGPRFVMRVGTGGIVGSKGDGIPDRFSVLGSGLNRYLTIKNIQEEDESDYHCGADHGSGILFGGGTKLTVL , please?
8.10
